Target: human OX2R (Homo sapiens)
Assay: Evaluation of OX2R agonist activity (intracellular calcium, CHO-K1 cells with forced expression of human OX2R)
Settings: CHO-K1 cells expressing human OX2R; 100% = 5 µM of the reference compound; read-out: hOX2R EC50
resultType: log10 of EC50 (log10 of the value in µM)
Scale type: logarithmic (base 10). Underlying EC50 unit: µM.

Tell me the measured log10 of EC50 of [2H]C([2H])([2H])C([2H])(O)C(=O)N1C2CC(C2)C(NS(=O)(=O)CC)C1Cc1cc(F)cc(-c2ccccc2)c1F (single isomer, unassigned) , please.
-1.70

// query: CC(C)(O)C(=O)N1C2CC(C2)[C@H](NS(C)(=O)=O)[C@@H]1Cc1cccc(-c2cccc(F)c2F)c1F
-1.08

// query: CS(=O)(=O)N[C@@H]1[C@H](Cc2cc(F)cc(-c3cccc(Cl)c3)c2F)N(C(=O)[C@H](O)C(F)(F)F)C2CC1(F)C2 (single isomer, unassigned)
-1.10

// query: CS(=O)(=O)N[C@H]1C2CC(C2)N(C(=O)[C@H]2C[C@@H]2F)[C@H]1Cc1cccc(-c2cc(F)cc(F)c2)c1F
-0.60

// query: CCS(=O)(=O)N[C@H]1C2CC(C2)N(C(=O)C(C)(C)O)[C@H]1Cc1cccc(-c2cc(F)cc(F)c2)c1F (single isomer, unassigned)
-1.04

// query: C[C@@H](O)C(=O)N1C2CC(C2)[C@H](NS(C)(=O)=O)[C@@H]1Cc1cc(F)cc(-c2ccccc2)c1F
-1.42

// query: C[C@H](O)C(=O)N1C2CC(C2)[C@H](NS(C)(=O)=O)[C@@H]1Cc1cccc(-c2cc(F)cc(F)c2)c1F
-0.52

// query: C[C@@H](O)C(=O)N1C2CC(C2)[C@H](NS(C)(=O)=O)[C@@H]1Cc1cccc(-c2cccc(C3CC3)n2)c1F
-1.31

// query: CC(C)(O)C(=O)N1C2CC(C2)C(NS(=O)(=O)CF)C1Cc1cccc(-c2cc(F)cc(F)c2)c1F (single isomer, unassigned)
-1.16

// query: CS(=O)(=O)N[C@@H]1[C@H](Cc2cccc(-c3ccccc3)c2F)N(C(=O)[C@@H]2C[C@@H]2F)C2CC1(F)C2
-1.24

// query: CS(=O)(=O)N[C@H]1C2CC(C2)N(C(=O)C2(O)CCC2)[C@H]1Cc1cccc(-c2ccccc2)c1F
-1.85

// query: CC(C)(O)C(=O)N1C2CC(F)(C2)[C@H](NS(C)(=O)=O)[C@@H]1Cc1cc(F)cc(-c2cccc(Cl)c2)c1F
-1.34

// query: [2H]C([2H])([2H])[C@@]([2H])(O)C(=O)N1C2CC(F)(C2)[C@H](NS(=O)(=O)CC)[C@@H]1Cc1cccc(-c2ccccc2)c1F
-1.68

// query: [2H]C([2H])([2H])C([2H])(O)C(=O)N1C2CC(F)(C2)C(NS(=O)(=O)CC)C1Cc1cc(F)cc(-c2ccccc2)c1F (single isomer, unassigned)
-1.72

// query: C[C@H](O)CC(=O)N1C2CC(C2)[C@H](NS(C)(=O)=O)[C@@H]1Cc1cccc(-c2ccccc2)c1F (single isomer, unassigned)
-0.95

// query: CCNC(=O)N1C2CC(C2)[C@H](NS(C)(=O)=O)[C@@H]1Cc1cccc(-c2ccccc2)c1F
-1.74

// query: CS(=O)(=O)N[C@H]1C2CC(C2)N(C(=O)[C@H](O)CF)[C@H]1Cc1cccc(-c2ccccc2)c1F
-1.11

// query: O=C([C@H]1C[C@H]1F)N1C2CC(C2)[C@H](NS(=O)(=O)C2CC2)[C@@H]1Cc1cccc(-c2ccccc2)c1F
-0.94

// query: CC(C)(O)C(=O)N1C2CC(C2)[C@H](NS(C)(=O)=O)[C@@H]1Cc1cccc(-c2cc(F)cc(Cl)c2)c1F
-1.47

// query: [2H]c1c([2H])c([2H])c(-c2cccc(C[C@H]3[C@@H](NS(C)(=O)=O)C4CC(C4)N3C(=O)[C@@H](C)O)c2F)c([2H])c1[2H]
-1.66

// query: CS(=O)(=O)N[C@@H]1[C@H](Cc2cccc(-c3ccccc3)c2F)N(C(=O)[C@@H]2CC2(F)F)C2CC1(F)C2
-1.16

// query: CCS(=O)(=O)N[C@@H]1[C@H](Cc2cccc(-c3ccccc3)c2F)N(C(=O)[C@@H](C)O)C2CC1(F)C2 (single isomer, unassigned)
-1.72

// query: CCS(=O)(=O)NC1C2CC(C2)N(C(=O)N2CCC2)C1Cc1cccc(-c2cc(F)cc(F)c2)c1F (single isomer, unassigned)
-1.05

// query: CCC(=O)N1C2CC(C2)[C@H](NS(C)(=O)=O)[C@@H]1Cc1cccc(-c2ccccc2)c1F
-0.61

// query: C[C@@H](O)C(=O)N1C2CC(C2)[C@H](NS(C)(=O)=O)[C@@H]1Cc1cccc(-c2cccc(C(F)F)n2)c1F
-0.93

* * *

Target: human OX2R (Homo sapiens, UniProt O43614)
Sequence (O43614 1-444): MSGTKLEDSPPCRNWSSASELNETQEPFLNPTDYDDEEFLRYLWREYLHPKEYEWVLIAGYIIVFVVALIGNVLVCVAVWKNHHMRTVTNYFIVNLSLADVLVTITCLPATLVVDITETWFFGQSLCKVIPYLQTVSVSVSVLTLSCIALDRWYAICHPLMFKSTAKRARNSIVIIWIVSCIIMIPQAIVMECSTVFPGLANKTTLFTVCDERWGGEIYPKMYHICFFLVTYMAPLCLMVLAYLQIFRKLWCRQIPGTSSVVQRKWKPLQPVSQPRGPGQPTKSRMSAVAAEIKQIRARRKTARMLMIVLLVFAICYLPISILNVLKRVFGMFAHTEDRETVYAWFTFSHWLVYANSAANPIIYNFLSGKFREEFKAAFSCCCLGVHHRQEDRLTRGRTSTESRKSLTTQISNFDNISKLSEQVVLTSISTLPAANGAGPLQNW
Experiment: Evaluation of OX2R agonist activity (intracellular calcium, CHO-K1 cells with forced expression of human OX2R)
Conditions: CHO-K1 cells expressing human OX2R; 100% = 5 µM of the reference compound; read-out: hOX2R EC50
Please go through the items and note down their pEC50.
Lab note: report pEC50 as minus log10 of the concentration in molar units, number only.

Tell me the measured pEC50 of CCS(=O)(=O)NC1C2CC(C2)N(C(=O)C23CC(C2)C3)C1Cc1cccc(-c2cc(F)cc(F)c2)c1F (single isomer, unassigned) , please.
6.62

// query: CS(=O)(=O)N[C@@H]1[C@H](Cc2cccc(-c3ccccc3)c2F)N(C(=O)[C@H]2CCO2)C2CC1(F)C2
7.59

// query: C[C@@H](O)C(=O)N1C2CC(C2)[C@H](NS(C)(=O)=O)[C@@H]1Cc1cccc(-c2csc(Cl)c2)c1F
7.43

* * *

Please go through the items and note down their EC50.
Molecular target: human OX2R (Homo sapiens, UniProt O43614)
Assay: Evaluation of OX2R agonist activity (intracellular calcium, CHO-K1 cells with forced expression of human OX2R)
Conditions: CHO-K1 cells expressing human OX2R; 100% = 5 µM of the reference compound; read-out: hOX2R EC50

Tell me the measured EC50 of C[C@@H](O)C(=O)N1C2CC(C2)[C@H](NS(C)(=O)=O)[C@@H]1Cc1cccc(-c2cccc(C(F)F)c2)c1F , please.
15 nM

// query: CCS(=O)(=O)N[C@H]1C2CC(C2)N(C(=O)[C@@H](C)O)[C@H]1Cc1cccc(-c2ccccc2)c1F (single isomer, unassigned)
16 nM

// query: CCS(=O)(=O)NC1C(Cc2cc(F)cc(-c3ccccc3)c2F)N(C(=O)[C@@H](C)O)C2CC1(F)C2 (single isomer, unassigned)
39 nM

* * *

Target: human OX2R (Homo sapiens)
Experiment: Evaluation of OX2R agonist activity (intracellular calcium, CHO-K1 cells with forced expression of human OX2R)
Details: CHO-K1 cells expressing human OX2R; 100% = 5 µM of the reference compound; read-out: hOX2R EC50
Field 'label' (enum: rule met / rule not met). Set to rule met when EC50 is strictly under 100 nM; else rule not met.

# check: EC50 < 100 nM for CC(C)(O)C(=O)N1C2CC(C2)[C@H](NS(C)(=O)=O)[C@@H]1Cc1cccc(-c2ccccc2)c1F
rule not met

// query: CCS(=O)(=O)NC1C2CC(C2)N(C(=O)N(C)C)C1Cc1cccc(-c2cc(F)cc(F)c2)c1F (single isomer, unassigned)
rule not met

// query: CCS(=O)(=O)NC1C2CC(C2)N(C(=O)[C@@H](C)O)C1Cc1cc(F)cc(-c2ccccc2)c1F (single isomer, unassigned)
rule met

// query: CS(=O)(=O)N[C@H]1C2CC(C2)N(C(=O)[C@H]2CCCO2)[C@H]1Cc1cccc(-c2cc(F)cc(F)c2)c1F
rule not met

// query: CS(=O)(=O)N[C@H]1C2CC(C2)N(C(=O)NCC2CC2)[C@H]1Cc1cccc(-c2cc(F)cc(F)c2)c1F
rule met

// query: CS(=O)(=O)N[C@H]1C2CC(C2)N(C(=O)[C@@H]2C[C@H]2F)[C@H]1Cc1cccc(-c2cc(F)cc(F)c2)c1F
rule not met
